B1: LYP tagged with the myc epitope, Arg620 variant (myc-LYPR) [human] / HA-CSK [not stated] (parent complex)
chain 1: MDQREILQKFLDEAQSKKITKEEFANEFLKLKRQSTKYKADKTYPTTVAEKPKNIKKNRYKDILPYDYSRVELSLITSDEDSSYINANFIKGVYGPKAYIATQGPLSTTLLDFWRMIWEYSVLIIVMACMEYEMGKKKCERYWAEPGEMQLEFGPFSVSCEAEKRKSDYIIRTLKVKFNSETRTIYQFHYKNWPDHDVPSSIDPILELIWDVRCYQEDDSVPICIHCSAGCGRTGVICAIDYTWMLLKDGIIPENFSVFSLIREMRTQRPSLVQTQEQYELVYNAVLELFKRQMDVIRDKHSGTESQAKHCIPEKNHTLQADSYSPNLPKSTTKAAKMMNQQRTKMEIKESSSFDFRTSEISAKEELVLHPAKSSTSFDFLELNYSFDKNADTTMKWQTKAFPIVGEPLQKHQSLDLGSLLFEGCSNSKPVNAAGRYFNSKVPITRTKSTPFELIQQRETKEVDSKENFSYLESQPHDSCFVEMQAQKVMHVSSAELNYSLPYDSKHQIRNASNVKHHDSSALGVYSYIPLVENPYFSSWPPSGTSSKMSLDLPEKQDGTVFPSSLLPTSSTSLFSYYNSHDSLSLNSPTNISSLLNQESAVLATAPRIDDEIPPPLPVRTPESFIVVEEAGEFSPNVPKSLSSAVKVKIGTSLEWGGTSEPKKFDDSVILRPSKSVKLRSPKSELHQDRSSPPPPLPERTLESFFLADEDCMQAQSIETYSTSYPDTMENSTSSKQTLKTPGKSFTRSKSLKILRNMKKSICNSCPPNKPAESVQSNNSSSFLNFGFANRFSKPKGPRNPPPTWNI
chain 2: MSAIQAAWPSGTECIAKYNFHGTAEQDLPFCKGDVLTIVAVTKDPNWYKAKNKVGREGIIPANYVQKREGVKAGTKLSLMPWFHGKITREQAERLLYPPETGLFLVRESTNYPGDYTLCVSCDGKVEHYRIMYHASKLSIDEEVYFENLMQLVEHYTSDADGLCTRLIKPKVMEGTVAAQDEFYRSGWALNMKELKLLQTIGKGEFGDVMLGDYRGNKVAVKCIKNDATAQAFLAEASVMTQLRHSNLVQLLGVIVEEKGGLYIVTEYMAKGSLVDYLRSRGRSVLGGDCLLKFSLDVCEAMEYLEGNNFVHRDLAARNVLVSEDNVAKVSDFGLTKEASSTQDTGKLPVKWTAPEALREKKFSTKSDVWSFGILLWEIYSFGRVPYPRIPLKDVVPRVEKGYKMDAPDGCPPAVYEVMKNCWHLDAAMRPSFLQLREQLEHIKTHELHL

Variants of: B1
Assay: co-immunoprecipitation (IP anti-myc, IB HA), blot densitometry; transfected HEK293 cells; parent: 48.1

MUTATION ID	VALUE UNITS	response
chain 1 P695A	arbitrary units	23.3
chain 1 P615A, chain 1 P618A	arbitrary units	10.3
chain 1 P615A, chain 1 P618A, chain 1 P695A	arbitrary units	0.77

// provenance: paper PMC3554717
